Molecular target: integrin α2β1 (Homo sapiens, UniProt P05556+P17301)
Sequence (P17301 30-1181): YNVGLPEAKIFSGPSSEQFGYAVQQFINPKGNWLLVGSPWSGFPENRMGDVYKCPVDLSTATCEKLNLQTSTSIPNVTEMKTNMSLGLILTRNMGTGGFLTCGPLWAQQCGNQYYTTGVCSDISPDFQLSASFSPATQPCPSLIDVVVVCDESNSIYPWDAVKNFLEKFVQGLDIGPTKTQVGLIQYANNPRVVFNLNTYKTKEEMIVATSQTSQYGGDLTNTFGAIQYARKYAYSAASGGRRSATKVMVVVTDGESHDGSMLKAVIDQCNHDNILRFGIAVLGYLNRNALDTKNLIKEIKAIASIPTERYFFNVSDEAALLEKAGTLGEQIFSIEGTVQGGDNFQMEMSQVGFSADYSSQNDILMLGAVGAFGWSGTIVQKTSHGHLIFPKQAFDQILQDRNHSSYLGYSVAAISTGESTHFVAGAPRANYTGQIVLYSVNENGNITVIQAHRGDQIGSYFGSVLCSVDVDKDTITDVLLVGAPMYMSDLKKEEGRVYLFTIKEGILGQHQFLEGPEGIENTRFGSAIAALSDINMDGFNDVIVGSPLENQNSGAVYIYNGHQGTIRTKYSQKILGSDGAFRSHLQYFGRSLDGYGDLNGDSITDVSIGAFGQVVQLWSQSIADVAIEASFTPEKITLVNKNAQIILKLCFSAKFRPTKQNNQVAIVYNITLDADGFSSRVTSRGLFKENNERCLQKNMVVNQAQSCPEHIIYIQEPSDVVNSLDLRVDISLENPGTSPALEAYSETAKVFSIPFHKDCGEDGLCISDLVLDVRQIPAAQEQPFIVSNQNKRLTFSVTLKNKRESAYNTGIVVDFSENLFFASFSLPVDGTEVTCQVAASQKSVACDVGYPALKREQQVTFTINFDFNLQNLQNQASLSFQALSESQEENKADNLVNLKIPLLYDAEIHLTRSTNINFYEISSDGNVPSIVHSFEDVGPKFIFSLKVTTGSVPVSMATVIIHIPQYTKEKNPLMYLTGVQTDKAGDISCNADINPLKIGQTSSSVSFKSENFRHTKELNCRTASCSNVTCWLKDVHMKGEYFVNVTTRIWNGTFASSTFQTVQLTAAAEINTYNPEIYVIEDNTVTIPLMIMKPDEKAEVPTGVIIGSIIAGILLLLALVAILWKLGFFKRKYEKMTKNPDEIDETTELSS
Sequence (P05556 21-798): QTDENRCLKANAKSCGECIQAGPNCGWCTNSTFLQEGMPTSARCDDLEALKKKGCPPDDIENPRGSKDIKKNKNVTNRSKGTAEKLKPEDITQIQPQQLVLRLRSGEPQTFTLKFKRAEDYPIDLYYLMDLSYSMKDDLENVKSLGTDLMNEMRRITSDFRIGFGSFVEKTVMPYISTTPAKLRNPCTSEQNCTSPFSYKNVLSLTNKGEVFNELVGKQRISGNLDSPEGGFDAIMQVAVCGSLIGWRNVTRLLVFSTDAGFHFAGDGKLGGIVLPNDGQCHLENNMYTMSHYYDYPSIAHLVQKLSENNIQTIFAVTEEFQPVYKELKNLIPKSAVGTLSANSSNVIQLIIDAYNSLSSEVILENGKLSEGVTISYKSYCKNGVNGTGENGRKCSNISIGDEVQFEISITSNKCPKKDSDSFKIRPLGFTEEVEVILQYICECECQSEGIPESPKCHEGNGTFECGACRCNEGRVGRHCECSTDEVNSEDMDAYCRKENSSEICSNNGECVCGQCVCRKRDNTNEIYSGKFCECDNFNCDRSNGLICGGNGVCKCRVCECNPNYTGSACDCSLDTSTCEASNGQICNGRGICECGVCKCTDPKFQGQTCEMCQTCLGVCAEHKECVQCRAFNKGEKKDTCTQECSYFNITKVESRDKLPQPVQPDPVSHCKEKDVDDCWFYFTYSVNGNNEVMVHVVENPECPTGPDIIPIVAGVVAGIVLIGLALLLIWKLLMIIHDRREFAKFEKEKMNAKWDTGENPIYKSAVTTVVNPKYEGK
Assay: HT 1080 cell adhesion assay on rat tail collagen I
Conditions: HT1080 (human fibrosarcoma) cells on rat tail collagen I, absorbance at 595 nm, triplicate; read-out: IC50s from HT 1080 Cell adhesion assay
pIC50: −log10 of the molar value.
Reported metric: pIC50

These solved cases illustrate the format of a correct answer.
> print(dat)
                                   molecule                         target.under.test  observed.result
1  O=C(NC[C@H](NC(=O)c1c(Cl)cccc1Cl)C(=O)O)NC12CC3CC(CC1C3)C2 [A2-145]  integrin α2β1 (Homo sapiens, UniProt P05556+P17301)     4.00 to 5.00
2  CC(C)(C)NC(=O)NC[C@H](NC(=O)c1c(Cl)cccc1Cl)C(=O)O  integrin α2β1 (Homo sapiens, UniProt P05556+P17301)           < 4.00
3  O=C(NC[C@H](NC(=O)c1c(Cl)cccc1Cl)C(=O)O)NC12CC3CC(C1)CC(C(F)(F)F)(C3)C2 [A2-131]  integrin α2β1 (Homo sapiens, UniProt P05556+P17301)     4.00 to 5.00
4  O=C(NC[C@H](NC(=O)c1c(Cl)cccc1Cl)C(=O)O)NC1C2CC3CC(C2)CC1C3 (some centres unmarked) [A2-130]  integrin α2β1 (Homo sapiens, UniProt P05556+P17301)           > 5.00
5  O=C(NC[C@H](NC(=O)c1c(Cl)cccc1Cl)C(=O)O)NC12CC3CC(CC(C3)C1)C2 [A2-87]  integrin α2β1 (Homo sapiens, UniProt P05556+P17301)     4.00 to 5.00

Record summary for Cc1cc(OC(C)C)cc(C)c1C(=O)N[C@@H](CNC(=O)NCc1ccccc1)C(=O)O [A2-61] : reported pIC50 = 4.00 to 5.00

Record summary for O=C(NC[C@H](NC(=O)c1c(Cl)cccc1Cl)C(=O)O)N[C@@H]1CCc2ccccc21 [A2-85] : reported pIC50 = > 5.00

Record summary for O=C(NC[C@H](NC(=O)c1c(Cl)cccc1Cl)C(=O)O)NC1CCC2(CC1)C1CC3CC(C1)CC2C3 (some centres unmarked) [A2-180] : reported pIC50 = 4.00 to 5.00

Record summary for O=C(NCc1ccccc1)NC[C@H](NC(=O)c1c(F)cccc1Br)C(=O)O [A2-36] : reported pIC50 = 4.00 to 5.00

Record summary for CC(NC(=O)NC[C@H](NC(=O)c1c(Cl)cccc1Cl)C(=O)O)C12CC3CC(CC(C3)C1)C2 (some centres unmarked) [A2-132] : reported pIC50 = 4.00 to 5.00

Record summary for COc1ccc(CNC(=O)NC[C@H](NC(=O)c2c(Cl)cccc2Cl)C(=O)O)cc1 [KZ-1-20] : reported pIC50 = < 4.00

Record summary for O=C(NCc1c(F)cccc1F)NC[C@H](NC(=O)c1c(Cl)cccc1Cl)C(=O)O [KZ-1-33] : reported pIC50 = < 4.00

Record summary for C[C@@H](NC(=O)NC[C@H](NC(=O)c1c(Cl)cccc1Cl)C(=O)O)c1ccccc1 [KZ-1-12] : reported pIC50 = 4.00 to 5.00

Record summary for COc1cc(C)c(C(=O)N[C@@H](CNC(=O)NCc2ccccc2)C(=O)O)c(C)c1 [A2-60] : reported pIC50 = 4.00 to 5.00

Record summary for CC12CC3CC(C1)CC(NC(=O)NC[C@H](NC(=O)c1c(Cl)cccc1Cl)C(=O)O)(C3)C2 [A2-157] : reported pIC50 = 4.00 to 5.00

Record summary for CC(C)(C)CNC(=O)NC[C@H](NC(=O)c1c(Cl)cccc1Cl)C(=O)O [KZ-1-40] : reported pIC50 = < 4.00

Record summary for O=C(NC[C@H](NC(=O)c1c(Cl)cccc1Cl)C(=O)O)NC12CC3CC(C1)CC(C(=O)O)(C3)C2 [A2-143] : reported pIC50 = 4.00 to 5.00
